The entries below are paired with their reported combination Emax.
# Tested on: ML-2 (Acute Myeloid Leukemia)
# TEST: combination Emax (second highest fraction inhibited in the dose matrix, 72 h); higher = more inhibition; extreme values may be limits of the assay
Reply briefly: the number, and no unit.

CC1(C)CCC(CN2CCN(c3ccc(C(=O)NS(=O)(=O)c4ccc(NCC5CCOCC5)c([N+](=O)[O-])c4)c(Oc4cnc5[nH]ccc5c4)c3)CC2)=C(c2ccc(Cl)cc2)C1 [Venetoclax] + C=CCn1c(=O)c2cnc(Nc3ccc(N4CCN(C)CC4)cc3)nc2n1-c1cccc(C(C)(C)O)n1 [AZD1775] (first compound max 1 µM, partner max 1 µM) :: 1
CC1(C)CCC(CN2CCN(c3ccc(C(=O)NS(=O)(=O)c4ccc(NCC5CCOCC5)c([N+](=O)[O-])c4)c(Oc4cnc5[nH]ccc5c4)c3)CC2)=C(c2ccc(Cl)cc2)C1 [Venetoclax] + C1CN(CCC1(C(=O)N[C@@H](CCO)C2=CC=C(C=C2)Cl)N)C3=NC=NC4=C3C=CN4 [Capivasertib] (first compound max 1 µM, 7x7, partner max 3 µM) :: 0.933
COc1cccc(OCCCN)c1-c1cc(Nc2cnc(C#N)cn2)n[nH]1 [Prexasertib] + Cc1cc2ncnn2cc1Nc1ncc2c(n1)n(C1CCOCC1)c(=O)n2C [AZD7648] (first compound max 1 µM, 7x7, partner max 10 µM) :: 1

Could you now consider this next compound?
Exercise: For the compound O=C(c1cc(Cc2n[nH]c(=O)c3ccccc23)ccc1F)N1CCN(C(=O)C2CC2)CC1 [Olaparib] + COc1nnc2ccc(N3CCC(c4ccc(OCCN5CCN(C)C(=O)[C@H]5C)cc4)CC3)nn12 [AZD5153] (first compound max 10 µM, 7x7, partner max 1 µM) , what combination Emax is on record?
Solution: 0.917

====

The reader will find reported Bliss excess values listed item by item below.
# Test system: KMRC-1 (Kidney Carcinoma);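 also: after 72 h of two-drug dosing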
# TEST: Bliss excess, mean over the matrix (fraction); higher = more synergy
API note: the answer field is a bare number with no unit suffix.

Cc1cc2ncnn2cc1Nc1ncc2c(n1)n(C1CCOCC1)c(=O)n2C [AZD7648] + COc1cc([C@@H]2c3cc4c(cc3[C@@H](O[C@@H]3O[C@@H]5CO[C@@H](C)O[C@H]5[C@H](O)[C@H]3O)[C@H]3COC(=O)[C@H]23)OCO4)cc(OC)c1O [Etoposide] (first compound max 10 µM, 7x7, partner max 10 µM) :: 0.0859
CC1(C)CCC(CN2CCN(c3ccc(C(=O)NS(=O)(=O)c4ccc(NCC5CCOCC5)c([N+](=O)[O-])c4)c(Oc4cnc5[nH]ccc5c4)c3)CC2)=C(c2ccc(Cl)cc2)C1 [Venetoclax] + CS(=O)(=O)CCNCc1ccc(-c2ccc3ncnc(Nc4ccc(OCc5cccc(F)c5)c(Cl)c4)c3c2)o1 [Lapatinib] (first compound max 1 µM, 7x7, partner max 10 µM) :: -0.0584
C[C@@H](Nc1cc(F)cc(F)c1)c1cc(C(=O)N(C)C)cc2c(=O)cc(N3CCOCC3)oc12 [AZD8186] + C1CN(CCC1(C(=O)N[C@@H](CCO)C2=CC=C(C=C2)Cl)N)C3=NC=NC4=C3C=CN4 [AZD5363] (first compound max 10 µM, 7x7, partner max 10 µM) :: -0.0524
COc1nnc2ccc(N3CCC(c4ccc(OCCN5CCN(C)C(=O)[C@H]5C)cc4)CC3)nn12 [AZD5153] + C[C@@H]1COCCN1C2=NC(=NC(=C2)C3(CC3)[S@](=N)(=O)C)C4=C5C=CNC5=NC=C4 [AZD6738] (first compound max 1 µM, 7x7, partner max 10 µM) :: 0.0195
NC1(C(=O)N[C@@H](CCO)c2ccc(Cl)cc2)CCN(c2ncnc3[nH]ccc23)CC1 [Capivasertib] + COc1nnc2ccc(N3CCC(c4ccc(OCCN5CCN(C)C(=O)[C@H]5C)cc4)CC3)nn12 [AZD5153] (first compound max 10 µM, 7x7, partner max 1 µM) :: 0.0129

Exercise: Look up Bliss excess: CN(C)CCCOc1ccc(-c2ccc3ncc4c(c3c2)n(C2CCOCC2)c(=O)n4C)cn1 [AZD0156] + O=C(c1cc(Cc2n[nH]c(=O)c3ccccc23)ccc1F)N1CCN(C(=O)C2CC2)CC1 [Olaparib] (first compound max 3 µM, partner max 3 µM)
Solution: -0.0316

Exercise: Find the recorded Bliss excess belonging to CN(C)CCCOc1ccc(-c2ccc3ncc4c(c3c2)n(C2CCOCC2)c(=O)n4C)cn1 [AZD0156] + C=CCn1c(=O)c2cnc(Nc3ccc(N4CCN(C)CC4)cc3)nc2n1-c1cccc(C(C)(C)O)n1 [AZD1775] (first compound max 1 µM, partner max 1 µM) and report it.
Solution: -0.0216

Exercise: Dear colleague, I am looking for the recorded Bliss excess of the following molecule: C[C@@H]1COCCN1c1cc(C2([S@](C)(=N)=O)CC2)nc(-c2ccnc3[nH]ccc23)n1 [AZD6738] + C1CC(C1)(C(=O)[O-])C(=O)[O-].N.N.[Pt+2] [Carboplatin] (first compound max 10 µM, 7x7, partner max 10 µM)
Solution: -0.0289
